- ASSAY SUMMARY: Solubility of cefdinir and the double salts in water
- Format: physicochemical
Structures can show the parent of a compound that is named as a salt.

>  <COMPOUND>
C=CC1=C(C(=O)O)N2C(=O)C(NC(=O)/C(=N\O)c3csc(N)n3)C2SC1 (single isomer, unassigned; (-)) [Cefdinir potassium(0.5) hydrogen(1.5) sulfate]

>  <Solubility>
Soluble

$$$$
>  <COMPOUND>
C=CC1=C(C(=O)O)N2C(=O)C(NC(=O)/C(=N\O)c3csc(N)n3)C2SC1 (single isomer, unassigned; (-)) [Cefdinir ammonium(0.5) hydrogen(1.5) sulfate]

>  <Solubility>
Soluble

$$$$
>  <COMPOUND>
C=CC1=C(C(=O)O)N2C(=O)C(NC(=O)/C(=N\O)c3csc(N)n3)C2SC1 (single isomer, unassigned; (-)) [Cefdinir sodium(0.5) hydrogen(1.5) sulfate]

>  <Solubility>
Soluble

$$$$
